Below, pIC50 values reported for Cytochrome P450 2D6 (Homo sapiens) across several publications.
pIC50: −log10 of the molar value.

Some compounds with known pIC50 results, for comparison:
O=C(c1ccc(Nc2ccc(C3CC3)nc2)nc1F)c1c[nH]c2ncccc12 : < 5.00
CC(C)(C)c1cc(NC(=O)c2cccnc2NCc2ccnc3[nH]ccc23)no1 : < 4.70
CS(=O)(=O)CC(=O)Nc1c(-c2ccc(F)cc2)nn2c1C(=O)N[C@@]1(CCOc3cc(OCC(F)(F)F)ccc31)C2 : < 4.70
CC1(C)CN(C(=O)C2CCCO2)Cc2cc(NC(=O)c3cccnc3NCc3ccnc4[nH]ccc34)ccc21 (single isomer, unassigned) : < 4.70

Field: next compound
# input For Cytochrome P450 2D6 (Homo sapiens), give pIC50 of the listed compound: CC(O)c1ccc(CCOc2ccc(CC3SC(=O)NC3=O)cc2)nc1 (racemic)
# output < 4.00

###

pIC50: −log10 of the molar value.
Below, pIC50 values reported for Cytochrome P450 2D6 (Homo sapiens, UniProt P10635) across several publications.

Some compounds with known pIC50 results, for comparison:
COc1ccc(Nc2ccc(C(=O)c3c[nH]c4ncnc(NC(C)C)c34)c(F)n2)cn1 : < 5.00
c1cn2c(n1)c(Nc1ccc(N3CCOCC3)cc1)nc1ccc(-c3cn[nH]c3)cc12 : < 4.30
Cc1ccc(Cn2c(=O)n([C@@H](C)[C@@H](C)C(=O)O)c(=O)[nH]/c2=N\c2ccc(Oc3cccc(F)n3)cc2)cc1 : < 4.70
CC1(c2cc(-c3cncnc3)ccc2F)COCC(N)=N1 (centres unmarked) : 4.39
COc1cncc(Nc2ccc(C(=O)c3c[nH]c4ncnc(NCC(F)(F)F)c34)c(F)n2)c1 : < 5.00
C[C@]1(c2cc(NC(=O)c3ccc(F)cn3)ccc2F)N=C(N)OCC12CC(F)(F)C2 : ≤ 4.70
CC[C@@H](C#N)NC(=O)c1ccc(-c2nc(Nc3cn[nH]c3)ncc2Cl)cc1 : 5.64

Field: next compound
# input Given `COCCOc1ncnc2[nH]cc(Cc3ccc(Nc4ccc(C)nc4)nc3F)c12` , respond with its pIC50.
# output < 5.00

###

Below, IC50 values reported for Cytochrome P450 2D6 (Homo sapiens, UniProt P10635) across several publications.

Some compounds with known IC50 results, for comparison:
COc1cccc(-c2ccc3nc(NC(=O)NCc4cc(=O)[nH]o4)cn3n2)c1 : > 20 µM
C[C@]1(c2cc(NC(=O)c3ccc(F)cn3)ccc2F)N=C(N)O[C@H](CF)[C@@H]1OCC(F)(F)F : ≥ 10 µM
CC(=O)N1Cc2cc(NC(=O)c3cccnc3NCc3ccnc4[nH]ccc34)ccc2C(C)(C)C1 : > 20 µM
C[C@@H](c1ccccc1-c1ccc(F)cc1)n1cncc1C(=O)N1CCC(N2CCc3nccnc3C2)CC1 : > 10 µM
COc1ncnc2[nH]cc(Cc3ccc(Nc4ccc(Cl)nc4)nc3F)c12 : > 10 µM
C[C@]1(c2cc(NC(=O)c3ccc(Cl)s3)ccc2F)N=C(N)O[C@@H]2CCCC(F)(F)[C@@H]21 : 1 to 10 µM

# input For Cytochrome P450 2D6 (Homo sapiens, UniProt P10635), give IC50 of the listed compound: NC(=O)c1cc(COC2=NN=C(Nc3ccc(Cl)cc3)C3C=COC23)ccn1 (stereo not drawn)
# output > 20 µM

# input For Cytochrome P450 2D6 (Homo sapiens, UniProt P10635), give IC50 of the listed compound: `C[C@H](c1ccc(F)cc1)n1cncc1CN1CCN(S(=O)(=O)c2cnc(N3C[C@@H]4C[C@@H](O)CN4C[C@@H]3C)s2)CC1`
# output 6.18 µM

# input For Cytochrome P450 2D6 (Homo sapiens, UniProt P10635), give IC50 of the listed compound: `CC(C)=CNc1ncnc2[nH]cc(C(=O)c3ccc(NC4CCC(F)(F)CC4)nc3Cl)c12`
# output > 10 µM

# input For Cytochrome P450 2D6 (Homo sapiens, UniProt P10635), give IC50 of the listed compound: `C[C@@H](c1ccccc1-c1ccc(F)cc1)n1cncc1C(=O)N1CC[C@@H](N2CCC(O)CC2)[C@@H](F)C1`
# output > 10 µM

###

Below, pIC50 values reported for Cytochrome P450 2D6 (Homo sapiens, UniProt P10635) across several publications.
pIC50: −log10 of the molar value.

Some molecules with known pIC50 results, for comparison:
C[C@H](c1ccc(F)cc1)n1cncc1CN1CCN(S(=O)(=O)c2cnc(N3CCC(S(C)(=O)=O)C3)s2)CC1 (some centres unmarked) : < 5.00
CCCS(=O)(=O)Nc1ccc(F)c(C(=O)c2c[nH]c3ncc(C)c(Cl)c23)c1F : < 5.00
C[C@@H](C#N)NC(=O)c1ccc(-c2nc(Nc3cnn(C4CCN(C)CC4)c3)ncc2Cl)cc1 : < 4.30
Clc1cnc2[nH]cc(Cc3cnc(NC4CCCCCC4)nc3)c2c1 : < 5.00
C[C@H](c1ccc(F)cc1)n1cncc1CN1CCN(S(=O)(=O)c2cnc(N3CCN(C)CC3)s2)CC1 : 5.10
CC[C@@H]1[C@H](F)C(=O)N[C@@H]1COc1ncc(C#CCOC)c2cc(C(N)=O)c(OC)cc12 : 4.86
CCOc1ncnc2[nH]cc(Cc3ccc(Nc4ccc(OC)nc4)nc3F)c12 : < 5.00

Field: next molecule
# input For Cytochrome P450 2D6 (Homo sapiens, UniProt P10635), give pIC50 of the listed molecule: `O=c1[nH]/c(=N\c2ccc(Oc3ncccc3F)cc2)n(Cc2ccc(Cl)cc2)c(=O)n1[C@H]1C[C@H](C(=O)O)C1`
# output < 4.70

###

pIC50: −log10 of the molar value.
Below, pIC50 values reported for Cytochrome P450 2D6 (Homo sapiens, UniProt P10635) across several publications.

CCCNc1ncnc2[nH]cc(C(=O)c3ccc(Nc4ccc(C)nc4)nc3F)c12 : < 5.00
CC[C@@H](C#N)NC(=O)c1ccc(-c2nc(Nc3cnn(CC#N)c3)ncc2C)cc1 : 4.72
COc1ccc(C(=O)Nc2ccc(F)c([C@@]3(C)N=C(N)S[C@H](C)[C@@H]3F)c2)nn1 : ≤ 5.00
CC1(C)CNC(=O)c2cc(NC(=O)c3cccnc3NCc3ccnc4[nH]ccc34)ccc21 : < 4.70

# input For Cytochrome P450 2D6 (Homo sapiens, UniProt P10635), give pIC50 of the listed compound: `C[C@]1(c2cc(NC(=O)c3ncc(C(F)(F)F)cc3Cl)ccc2F)N=C(N)OCC1(F)F`
# output 5.00 to 6.00

# input For Cytochrome P450 2D6 (Homo sapiens, UniProt P10635), give pIC50 of the listed compound: `COc1ccc2c(c1OCc1ccccc1)C[C@@H](C(=O)O)N(C(=O)[C@@H](OC1CC(F)(F)C1)c1ccccc1)C2`
# output < 4.30

# input For Cytochrome P450 2D6 (Homo sapiens, UniProt P10635), give pIC50 of the listed compound: `O=C(Nc1ccc(C(F)(F)C(F)(F)F)cc1)c1cc(F)cnc1NCc1ccnc2[nH]ccc12`
# output < 4.70

# input For Cytochrome P450 2D6 (Homo sapiens, UniProt P10635), give pIC50 of the listed compound: `N#Cc1cc(CNc2ccccc2C(=O)Nc2cc3ccccc3cn2)ccn1`
# output < 4.52

# input For Cytochrome P450 2D6 (Homo sapiens, UniProt P10635), give pIC50 of the listed compound: `C[C@@H](c1ccccc1-c1ccc(F)cc1)n1cncc1C(=O)N1CCC(N2C[C@H](O)[C@@H](F)C2)CC1`
# output < 5.00

# input For Cytochrome P450 2D6 (Homo sapiens, UniProt P10635), give pIC50 of the listed compound: `NC1=N[C@](CF)(c2cc(NC(=O)c3ccc(OCF)cn3)ccc2F)C[C@@H](C(F)(F)F)O1`
# output 5.28

# input For Cytochrome P450 2D6 (Homo sapiens, UniProt P10635), give pIC50 of the listed compound: `C[C@H]1SC(N)=N[C@](C)(c2cc(NC(=O)c3cnc(OCC(F)(F)F)cn3)ccc2F)[C@H]1F`
# output ≤ 5.00

# input For Cytochrome P450 2D6 (Homo sapiens, UniProt P10635), give pIC50 of the listed compound: Cc1cnc2nc(CC3=C(O)CC(CCc4ccc(C5(C#N)CCC5)c(F)c4)(C4CCCC4)OC3=O)nn2c1 (stereo not shown)
# output 5.85

# input For Cytochrome P450 2D6 (Homo sapiens, UniProt P10635), give pIC50 of the listed compound: `CCOc1ccc(Nc2ccc(Cc3c[nH]c4ncc(C)cc34)c(F)n2)cn1`
# output < 5.00

###

Below, pIC50 values reported for Cytochrome P450 2D6 (Homo sapiens, UniProt P10635) across several publications.
pIC50: −log10 of the molar value.

CC(C)Nc1ncnc2[nH]cc(C(=O)c3ccc(NC4CCCCC4)nc3Cl)c12 : < 5.00
CC1(C)CC(=O)Nc2cc(NC(=O)c3cc(F)cnc3NCc3ccnc4[nH]ccc34)ccc21 : < 4.70

# input Given `CO[C@H]1CN(C(=O)c2cncn2[C@@H](C)c2ccccc2-c2ccc(F)cc2)CC[C@@H]1N1CCOC1=O` , respond with its pIC50.
# output 5.13

# input Given `COc1cccc(-c2ccc3nc(NC(=O)NCCC(=O)O)cn3n2)c1` , respond with its pIC50.
# output < 4.70

# input Given `COc1ccc2c(c1OCc1ccccc1)C[C@@H](C(=O)O)N(C(=O)[C@@H](OC1CCCC1)c1ccccc1)C2` , respond with its pIC50.
# output < 4.30

# input Given `C[C@@H](F)[C@H]1OC(N)=N[C@](C)(c2cc(NC(=O)c3ccc(C#N)cn3)ccc2F)[C@H]1F` , respond with its pIC50.
# output ≤ 4.70

# input Given `C[C@@H](c1ccccc1-c1ccc(F)cc1)n1cncc1C(=O)N1CCC(N2CCn3ncnc3C2)CC1` , respond with its pIC50.
# output < 5.00
